Measurement Target: human ether-à-go-go-related gene (hERG) potassium channel (human, UniProt Q12809);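 note: peak tail current of the secondary pulse compared with the same well before compound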
Sequence (Q12809 whole entry, looked up): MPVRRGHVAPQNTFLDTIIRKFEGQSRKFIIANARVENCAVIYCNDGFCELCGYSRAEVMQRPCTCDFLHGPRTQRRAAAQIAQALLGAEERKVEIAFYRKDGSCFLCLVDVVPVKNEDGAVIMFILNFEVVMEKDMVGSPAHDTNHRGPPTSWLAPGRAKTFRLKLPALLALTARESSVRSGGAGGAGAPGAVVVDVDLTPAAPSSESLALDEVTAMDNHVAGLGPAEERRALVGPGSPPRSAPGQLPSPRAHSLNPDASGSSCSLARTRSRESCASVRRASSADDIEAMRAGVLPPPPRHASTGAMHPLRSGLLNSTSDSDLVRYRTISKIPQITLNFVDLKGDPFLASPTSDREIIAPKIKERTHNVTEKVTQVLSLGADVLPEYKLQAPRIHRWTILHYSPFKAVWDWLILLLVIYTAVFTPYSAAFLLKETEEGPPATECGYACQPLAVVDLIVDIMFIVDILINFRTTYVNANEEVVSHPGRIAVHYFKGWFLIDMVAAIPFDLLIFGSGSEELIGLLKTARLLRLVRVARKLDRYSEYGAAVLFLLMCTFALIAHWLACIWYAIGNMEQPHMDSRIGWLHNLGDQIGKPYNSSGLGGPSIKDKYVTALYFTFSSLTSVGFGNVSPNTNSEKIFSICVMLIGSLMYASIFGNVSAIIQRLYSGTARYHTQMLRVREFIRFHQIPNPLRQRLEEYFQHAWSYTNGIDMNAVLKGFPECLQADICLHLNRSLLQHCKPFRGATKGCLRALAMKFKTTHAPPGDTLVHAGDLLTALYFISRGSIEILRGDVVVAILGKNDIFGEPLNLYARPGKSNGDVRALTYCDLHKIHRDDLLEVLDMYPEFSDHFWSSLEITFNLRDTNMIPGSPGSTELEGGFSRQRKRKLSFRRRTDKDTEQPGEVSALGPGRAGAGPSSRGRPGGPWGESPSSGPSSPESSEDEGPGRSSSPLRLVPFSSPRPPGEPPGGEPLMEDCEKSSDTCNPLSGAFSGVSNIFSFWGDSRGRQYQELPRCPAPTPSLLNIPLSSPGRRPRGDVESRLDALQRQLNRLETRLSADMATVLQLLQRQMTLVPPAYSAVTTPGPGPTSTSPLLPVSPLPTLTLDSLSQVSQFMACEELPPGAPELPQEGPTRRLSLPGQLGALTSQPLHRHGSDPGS
Assay Procedure: primary screen, population patch clamp on CHO cells stably expressing hERG; higher = less effect of the substance
The whole screen tested about 310,000 compounds, of which about 14,000 (4.5%) showed an effect of 50% or more. The effect is printed as a negative number. The entries come from a sample that favours strong results as a whole.
# hERG current change (%, negative = inhibition) at 10uM annotations
Parameter: hERG current change (%, negative = inhibition) at 10uM (%)

[[record]]
molecule = "CCOC(=O)N1CCC(N(CCN(C)C)C(=S)Nc2cccc(C)c2)CC1"
result_number = 4.81

[[record]]
molecule = "CCN(CC)C(=O)N1CCN(c2c([N+](=O)[O-])c(=O)oc3ccccc23)CC1"
result_number = -25.7

[[record]]
molecule = "Cc1ccc(C(=O)c2oc3ccccc3c2N)cc1"
result_number = -7.77

[[record]]
molecule = "COc1ccc(OC)c(NC(=O)Nc2nnc(N3CCC(C)CC3)s2)c1"
result_number = 5.07

[[record]]
molecule = "Cc1sc(NC(=O)c2ccc(Br)s2)c(C(N)=O)c1C"
result_number = 17.5

[[record]]
molecule = "CCn1ccnc1CN1CCCC(C(=O)c2cc(F)ccc2OC)C1 (stereo not drawn)"
result_number = -33

[[record]]
molecule = "CCN(CC)S(=O)(=O)c1cccc(C(=O)N/N=C/c2ccc(O)c(O)c2O)c1"
result_number = 11.4

[[record]]
molecule = "COc1ccc(-c2nc(CS(=O)CC(=O)NCc3cccnc3)c(C)o2)cc1OC (stereo not drawn)"
result_number = -2.9

[[record]]
molecule = "CCOC(=O)c1sc(NC(=O)CSc2nnc(-c3ccc(OC)cc3)n2CCOC)nc1C"
result_number = -27.3


###

Measurement Target: human ether-à-go-go-related gene (hERG) potassium channel (human);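 note: peak tail current of the secondary pulse compared with the same well before compound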
Assay Procedure: primary screen, population patch clamp on CHO cells stably expressing hERG; higher = less effect of the substance
About 14,000 (4.5%) of roughly 310,000 compounds showed an effect of 50% or more. Effects have a minus sign here. This excerpt belongs to a sample that is enriched for strong results.
// hERG current change (%, negative = inhibition) at 10uM lookup, one value per entry
Parameter: hERG current change (%, negative = inhibition) at 10uM (%)

[[record]]
compound = "COc1ccc(C(=O)NCc2nnc(SCC(=O)Nc3cccc(F)c3)o2)cc1"
unit_name = "%"
result_number = -1.96

[[record]]
compound = "Cc1c(CC(=O)N2C[C@H]3C[C@@H](C2)c2cccc(=O)n2C3)c(=O)oc2cc(O)c(Cl)cc12"
unit_name = "%"
result_number = 9.44

[[record]]
compound = "O=C(NCCNC(=O)c1ccccc1F)c1ccco1.O=C(O)C(=O)O"
unit_name = "%"
result_number = 13.9

[[record]]
compound = "O=C(C1CC(=O)N(c2ccc3c(c2)OCCO3)C1)N1CCN(Cc2ccccc2)CC1 (centres unmarked)"
unit_name = "%"
result_number = 0.404

[[record]]
compound = "O=C(C1CC(=O)N(c2ccc(Cl)cc2)C1)N1CCN(Cc2ccc3c(c2)OCO3)CC1 (centres unmarked)"
unit_name = "%"
result_number = -67.7

[[record]]
compound = "Cc1oc2c(C)c3oc(=O)c(CCC(=O)N4C[C@H]5C[C@@H](C4)c4cccc(=O)n4C5)c(C)c3cc2c1C"
unit_name = "%"
result_number = -51.7

[[record]]
compound = "C=CCOc1ccccc1CN1CCC(CO)(CCOc2ccccc2)CC1"
unit_name = "%"
result_number = -81.9

[[record]]
compound = "O=C(Nc1ccccc1N1CCCC1)c1cccnc1Cl"
unit_name = "%"
result_number = 4.72

[[record]]
compound = "CCOC(=O)c1c(NC(=O)COC(=O)Cn2cnc3ccccc32)sc2c1CCC(C)C2 (centres unmarked)"
unit_name = "%"
result_number = -3.78

[[record]]
compound = "COc1ccc2c(C)c(CC(=O)N3C[C@H]4C[C@@H](C3)c3cccc(=O)n3C4)c(=O)oc2c1"
unit_name = "%"
result_number = -32.4

[[record]]
compound = "Cc1oc2cc3oc(=O)c(CCC(=O)N4C[C@H]5C[C@@H](C4)c4cccc(=O)n4C5)c(C)c3cc2c1C"
unit_name = "%"
result_number = -54

[[record]]
compound = "CCN(CC(=O)Nc1c(F)cccc1F)C(=O)C1CCCN(C(=O)c2ccc(Cl)cc2)C1 (centres unmarked)"
unit_name = "%"
result_number = -31.5

[[record]]
compound = "COc1ccc(C(=O)C2CCCN(Cc3cccn3-c3ccccn3)C2)cc1F (centres unmarked)"
unit_name = "%"
result_number = -78.5

[[record]]
compound = "CCOc1ccccc1CN1CCN(S(=O)(=O)CC)CC1.O=C(O)C(=O)O"
unit_name = "%"
result_number = 10.7

[[record]]
compound = "COc1ccc(NC(=O)c2cc3ccc(O)cc3o/c2=N\\O)cc1"
unit_name = "%"
result_number = 2.99

[[record]]
compound = "O=C(C1CCN(c2nnc(-n3cccc3)s2)CC1)N1CCN(Cc2ccc3c(c2)OCO3)CC1"
unit_name = "%"
result_number = -68.2

[[record]]
compound = "OCC1(CCOc2ccccc2)CCN(Cc2ccccc2OC(F)F)CC1"
unit_name = "%"
result_number = -72.5

[[record]]
compound = "C[C@H](NS(=O)(=O)c1ccc2c(c1)OCCCO2)C(=O)N1CCN(Cc2ccc(C#N)cc2)CC1"
unit_name = "%"
result_number = -61.1

[[record]]
compound = "Cc1coc2cc3oc(=O)c(CCC(=O)N4C[C@H]5C[C@@H](C4)c4cccc(=O)n4C5)c(C)c3cc12"
unit_name = "%"
result_number = -42.5

[[record]]
compound = "Cc1ccc(NC(=O)Nc2cccc(Cl)c2)c(C(=O)O)c1"
unit_name = "%"
result_number = 19.6

[[record]]
compound = "CC1CCCCC1NC(=O)COc1ncnc2sccc12 (centres unmarked)"
unit_name = "%"
result_number = 3.61

[[record]]
compound = "C=CCn1c(SCC(=O)Nc2cccnc2Cl)nnc1-c1ccccc1F"
unit_name = "%"
result_number = -15.5

[[record]]
compound = "CCOc1ccc(CNC(=O)CCSCc2ccccc2F)cc1OC"
unit_name = "%"
result_number = 5.18


###

Listed here: items and their measured hERG current change (%, negative = inhibition) at 10uM.
Measurement Target: human ether-à-go-go-related gene (hERG) potassium channel (human, UniProt Q12809);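 note: peak tail current of the secondary pulse compared with the same well before compound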
Assay Procedure: primary screen, population patch clamp on CHO cells stably expressing hERG; higher = less effect of the substance
Out of some 310,000 compounds screened, about 14,000 (4.5%) showed an effect of 50% or more. The effect is printed as a negative number. The list comes from a sample in which strong results are over-represented; it also holds close analogues and randomly drawn compounds.
Parameter: hERG current change (%, negative = inhibition) at 10uM (%)

[[record]]
compound = "CCCCN1C(=O)c2ccc(C(=O)Nc3cccc(C)c3C)cc2C1=O"
measurement_target = "human ether-à-go-go-related gene (hERG) potassium channel (human, UniProt Q12809)"
result_number = 17.2

[[record]]
compound = "O=C(CSc1nc(CCC2CCCC2)nc2ccccc12)NCc1ccc2c(c1)OCO2"
measurement_target = "human ether-à-go-go-related gene (hERG) potassium channel (human, UniProt Q12809)"
result_number = 15

[[record]]
compound = "CCCCNC(=O)c1ccc(CS(=O)(=O)c2ccc(OC)cc2)o1"
measurement_target = "human ether-à-go-go-related gene (hERG) potassium channel (human, UniProt Q12809)"
result_number = -7

[[record]]
compound = "COC(=O)c1ccc(N2CCN(C)CC2)c(NC(=O)COc2ccc(C)cc2)c1"
measurement_target = "human ether-à-go-go-related gene (hERG) potassium channel (human, UniProt Q12809)"
result_number = -20

[[record]]
compound = "CN1CCN(c2ccccc2NC(=O)COc2ccc(Br)cc2)CC1"
measurement_target = "human ether-à-go-go-related gene (hERG) potassium channel (human, UniProt Q12809)"
result_number = -58

[[record]]
compound = "O=Nc1ccc(NOC(=O)c2ccccc2Br)cc1"
measurement_target = "human ether-à-go-go-related gene (hERG) potassium channel (human, UniProt Q12809)"
result_number = 3.45

[[record]]
compound = "CS(=O)(=O)Nc1cccc(C(=O)OCCCOc2ccc(F)cc2)c1"
measurement_target = "human ether-à-go-go-related gene (hERG) potassium channel (human, UniProt Q12809)"
result_number = -54.5

[[record]]
compound = "CCCCN1C(=O)c2ccc(C(=O)Nc3c(N)n(CCCC)c(=O)n(C)c3=O)cc2C1=O"
measurement_target = "human ether-à-go-go-related gene (hERG) potassium channel (human, UniProt Q12809)"
result_number = -51.9

[[record]]
compound = "Cc1ccc(-n2cc(S(=O)(=O)c3ccc(C)cc3)[nH]c2=O)cc1"
measurement_target = "human ether-à-go-go-related gene (hERG) potassium channel (human, UniProt Q12809)"
result_number = 4.72

[[record]]
compound = "Cc1ccc(CN2CCC(C(=O)Nc3cccc(-c4cccc(F)c4)c3)CC2)o1"
measurement_target = "human ether-à-go-go-related gene (hERG) potassium channel (human, UniProt Q12809)"
result_number = -69.1

[[record]]
compound = "COc1cc(OC)cc(C(=O)Oc2c(CN3CCOCC3)cc(Cl)c3cccnc23)c1"
measurement_target = "human ether-à-go-go-related gene (hERG) potassium channel (human, UniProt Q12809)"
result_number = -15.5

[[record]]
compound = "Cc1cc(C)cc(OCC(=O)Nc2ccccc2N2CCCCC2)c1"
measurement_target = "human ether-à-go-go-related gene (hERG) potassium channel (human, UniProt Q12809)"
result_number = -0.491

[[record]]
compound = "COC(=O)c1ccc(N2CCN(C)CC2)c(NC(=O)COc2ccccc2)c1"
measurement_target = "human ether-à-go-go-related gene (hERG) potassium channel (human, UniProt Q12809)"
result_number = -43.9

[[record]]
compound = "CCc1c(O)nc(SCC(=O)Nc2cc(C)on2)n(-c2ccccc2)c1=O"
measurement_target = "human ether-à-go-go-related gene (hERG) potassium channel (human, UniProt Q12809)"
result_number = 3.39

[[record]]
compound = "O=C(Nc1cccc(-c2cscn2)c1)C1CCN(Cc2ccc(CO)o2)CC1"
measurement_target = "human ether-à-go-go-related gene (hERG) potassium channel (human, UniProt Q12809)"
result_number = -3.02

[[record]]
compound = "COc1cccc(-c2cccc(NC(=O)C3CCN(Cc4ccc(C)o4)CC3)c2)c1"
measurement_target = "human ether-à-go-go-related gene (hERG) potassium channel (human, UniProt Q12809)"
result_number = -39.4

[[record]]
compound = "O=C(COC(=O)c1cc2c(s1)CCCC2)NCc1ccccc1Cl"
measurement_target = "human ether-à-go-go-related gene (hERG) potassium channel (human, UniProt Q12809)"
result_number = 1.44

[[record]]
compound = "CC(=O)Nc1cccc(C(=O)OCCCOc2ccc(F)cc2)c1"
measurement_target = "human ether-à-go-go-related gene (hERG) potassium channel (human, UniProt Q12809)"
result_number = 18.8

[[record]]
compound = "O=C(COc1ccc(Br)cc1)Nc1ccc(N2CCOCC2)cc1N1CCOCC1"
measurement_target = "human ether-à-go-go-related gene (hERG) potassium channel (human, UniProt Q12809)"
result_number = -7.56

[[record]]
compound = "CC(=O)N1CCN(c2ccccc2NC(=O)COc2ccccc2C)CC1"
measurement_target = "human ether-à-go-go-related gene (hERG) potassium channel (human, UniProt Q12809)"
result_number = -14

[[record]]
compound = "COC(=O)c1ccc(N2CCN(C)CC2)c(NC(=O)COc2ccc(OC)cc2)c1"
measurement_target = "human ether-à-go-go-related gene (hERG) potassium channel (human, UniProt Q12809)"
result_number = -53.5

[[record]]
compound = "COc1ccc(C(=O)C2CCCN(Cc3ccc(C#CCCO)cc3)C2)cc1F (centres unmarked)"
measurement_target = "human ether-à-go-go-related gene (hERG) potassium channel (human, UniProt Q12809)"
result_number = -45.3

[[record]]
compound = "CC(=O)N1CCN(c2ccccc2NC(=O)COc2cc(C)cc(C)c2)CC1"
measurement_target = "human ether-à-go-go-related gene (hERG) potassium channel (human, UniProt Q12809)"
result_number = -52.4

[[record]]
compound = "CCOC(=O)/C(C#N)=C/c1cccn1-c1ccc(Cl)cc1"
measurement_target = "human ether-à-go-go-related gene (hERG) potassium channel (human, UniProt Q12809)"
result_number = 2.73

[[record]]
compound = "COc1ccc(C(=O)C2CCCN(Cc3ccc(C)s3)C2)cc1OC (centres unmarked)"
measurement_target = "human ether-à-go-go-related gene (hERG) potassium channel (human, UniProt Q12809)"
result_number = -71.6

[[record]]
compound = "CC(=O)N1CCN(c2ccccc2NC(=O)COc2ccc(Br)cc2)CC1"
measurement_target = "human ether-à-go-go-related gene (hERG) potassium channel (human, UniProt Q12809)"
result_number = -9.2

[[record]]
compound = "Cc1cc(C)cc(OCC(=O)Nc2ccc(N3CCOCC3)cc2N2CCOCC2)c1"
measurement_target = "human ether-à-go-go-related gene (hERG) potassium channel (human, UniProt Q12809)"
result_number = -6.54

[[record]]
compound = "O=S(=O)(Cc1ccccc1)NCCc1cccc(Cl)c1"
measurement_target = "human ether-à-go-go-related gene (hERG) potassium channel (human, UniProt Q12809)"
result_number = -5.57

[[record]]
compound = "O=C(Nc1cccc(-c2cccc(F)c2)c1)C1CCN(Cc2ccco2)CC1"
measurement_target = "human ether-à-go-go-related gene (hERG) potassium channel (human, UniProt Q12809)"
result_number = -67.5

[[record]]
compound = "CCCCN(CCCNC(=O)c1ccc(CS(=O)(=O)c2ccc(OC)cc2)o1)Cc1ccccc1"
measurement_target = "human ether-à-go-go-related gene (hERG) potassium channel (human, UniProt Q12809)"
result_number = -67.4

[[record]]
compound = "COc1ccc2cc(C(=O)C3CCCN(Cc4cnc(C)s4)C3)ccc2c1 (centres unmarked)"
measurement_target = "human ether-à-go-go-related gene (hERG) potassium channel (human, UniProt Q12809)"
result_number = -28.8

[[record]]
compound = "CCCCN1C(=O)c2ccc(C(=O)Nc3ccc(S(=O)(=O)N(C)C)cc3)cc2C1=O"
measurement_target = "human ether-à-go-go-related gene (hERG) potassium channel (human, UniProt Q12809)"
result_number = -0.448

